- Experimental System: human acetyl-CoA carboxylase 2 (ACC2) (Homo sapiens)
- Construct: The cDNA encoding amino acids 144 to 2458 of human acetyl-CoA carboxylase 2; made in house; host or cells: Sf9 insect cells (baculovirus, pFastBac1)
- Sequence (O00763 144-2458): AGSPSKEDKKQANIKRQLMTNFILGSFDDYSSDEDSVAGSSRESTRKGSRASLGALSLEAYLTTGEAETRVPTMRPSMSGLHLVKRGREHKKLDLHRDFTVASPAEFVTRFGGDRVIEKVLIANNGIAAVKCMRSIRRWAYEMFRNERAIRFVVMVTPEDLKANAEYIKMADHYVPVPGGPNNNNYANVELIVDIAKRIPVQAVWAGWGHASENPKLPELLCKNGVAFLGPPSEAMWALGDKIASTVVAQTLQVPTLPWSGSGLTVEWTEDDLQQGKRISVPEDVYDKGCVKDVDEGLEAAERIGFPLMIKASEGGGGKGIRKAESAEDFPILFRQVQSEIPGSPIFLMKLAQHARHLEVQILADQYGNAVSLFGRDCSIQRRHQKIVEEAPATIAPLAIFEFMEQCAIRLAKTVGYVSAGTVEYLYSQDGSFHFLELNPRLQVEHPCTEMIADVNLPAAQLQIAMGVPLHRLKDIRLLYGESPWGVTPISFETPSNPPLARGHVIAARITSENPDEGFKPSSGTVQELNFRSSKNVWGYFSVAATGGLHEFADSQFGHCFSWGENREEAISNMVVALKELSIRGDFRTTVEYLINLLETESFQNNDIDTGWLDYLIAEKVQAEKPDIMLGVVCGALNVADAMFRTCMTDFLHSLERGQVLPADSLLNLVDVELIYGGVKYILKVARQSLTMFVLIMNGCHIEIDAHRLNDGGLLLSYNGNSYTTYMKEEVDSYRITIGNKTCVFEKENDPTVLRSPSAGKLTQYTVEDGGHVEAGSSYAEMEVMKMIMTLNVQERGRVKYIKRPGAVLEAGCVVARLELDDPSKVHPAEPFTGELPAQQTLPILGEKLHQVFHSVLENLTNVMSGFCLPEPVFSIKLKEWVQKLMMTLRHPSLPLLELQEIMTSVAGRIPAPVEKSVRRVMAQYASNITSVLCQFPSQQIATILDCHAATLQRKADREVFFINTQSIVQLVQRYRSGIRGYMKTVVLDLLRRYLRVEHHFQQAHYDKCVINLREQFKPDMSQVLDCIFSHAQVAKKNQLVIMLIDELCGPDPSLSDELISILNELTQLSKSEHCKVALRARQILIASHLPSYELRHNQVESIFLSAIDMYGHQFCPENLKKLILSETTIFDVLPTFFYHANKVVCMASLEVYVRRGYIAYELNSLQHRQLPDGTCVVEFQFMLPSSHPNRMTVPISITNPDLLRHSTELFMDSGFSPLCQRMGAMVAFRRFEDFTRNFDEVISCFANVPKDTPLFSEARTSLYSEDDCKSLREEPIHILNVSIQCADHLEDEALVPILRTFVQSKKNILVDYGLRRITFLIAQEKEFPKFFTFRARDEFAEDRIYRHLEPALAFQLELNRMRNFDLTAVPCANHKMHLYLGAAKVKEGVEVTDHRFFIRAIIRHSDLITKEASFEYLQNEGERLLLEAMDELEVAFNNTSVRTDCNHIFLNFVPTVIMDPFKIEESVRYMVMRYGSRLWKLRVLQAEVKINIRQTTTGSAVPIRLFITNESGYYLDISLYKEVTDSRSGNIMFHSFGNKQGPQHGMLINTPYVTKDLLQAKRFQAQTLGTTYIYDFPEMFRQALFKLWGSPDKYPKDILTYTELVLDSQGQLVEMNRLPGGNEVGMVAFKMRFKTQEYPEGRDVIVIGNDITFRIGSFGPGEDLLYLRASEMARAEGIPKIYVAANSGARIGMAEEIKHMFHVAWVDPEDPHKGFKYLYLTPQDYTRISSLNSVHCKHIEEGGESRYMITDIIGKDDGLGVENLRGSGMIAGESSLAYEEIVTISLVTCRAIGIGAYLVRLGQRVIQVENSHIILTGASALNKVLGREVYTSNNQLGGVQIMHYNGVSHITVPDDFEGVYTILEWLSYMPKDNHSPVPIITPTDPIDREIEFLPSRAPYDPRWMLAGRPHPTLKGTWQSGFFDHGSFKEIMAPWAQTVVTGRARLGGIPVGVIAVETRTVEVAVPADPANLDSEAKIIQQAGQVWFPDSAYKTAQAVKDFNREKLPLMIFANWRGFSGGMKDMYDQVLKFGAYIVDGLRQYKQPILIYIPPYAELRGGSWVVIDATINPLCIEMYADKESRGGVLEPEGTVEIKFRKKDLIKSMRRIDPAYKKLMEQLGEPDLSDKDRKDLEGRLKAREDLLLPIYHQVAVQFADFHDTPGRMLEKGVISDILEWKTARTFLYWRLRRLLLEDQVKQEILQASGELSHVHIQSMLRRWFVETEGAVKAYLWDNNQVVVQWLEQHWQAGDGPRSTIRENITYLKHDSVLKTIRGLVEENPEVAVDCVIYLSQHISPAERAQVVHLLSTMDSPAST
- Protocol Description: Acetyl-CoA carboxylase enzyme assay (malonyl-CoA formation by LC/MS/MS)
- Format: biochemical
- Condition Set: recombinant human ACC2 (aa 144-2458); read-out: IC50 ACC2
Metric Name: IC50 (nM)
Value expressed in nM; do not type the unit.

{"columns": ["Substance Smiles", "Experimental System", "IC50 [nM]"],
 "data": [
  ["Cc1cc(CO)ccc1-c1cc2ccc(S(=O)(=O)N[C@H]3CC[C@H](C(=O)N4CCOCC4)CC3)cc2[nH]1", "human acetyl-CoA carboxylase 2 (ACC2) (Homo sapiens)", 60],
  ["C[C@@H](NC(=O)[C@H]1CC[C@H](NS(=O)(=O)c2ccc3c(c2)N(C)[C@H](C(=O)O)CC3)CC1)c1ccc(F)cc1", "human acetyl-CoA carboxylase 2 (ACC2) (Homo sapiens)", 595],
  ["COCCn1c(-c2ccccc2)nc2cc(S(=O)(=O)N[C@H]3CC[C@H](C(=O)N[C@H](C)c4ccc(F)cc4)CC3)ccc21", "human acetyl-CoA carboxylase 2 (ACC2) (Homo sapiens)", 71]
]}

Continue with the next molecule.
Recall and state the measured IC50 for Cn1c(-c2ccc(CO)cc2)cc2ccc(S(=O)(=O)N[C@H]3CC[C@H](C(=O)N4CCN[C@H](C(F)(F)F)C4)CC3)cc21 .
20

Where do the numbers come from? From patent US8697739B2.
